Measured values drawn from patent US11504441B2 for this set.

assay.method.text: in vivo
recorded.conditions: male, NODSCID 1L2RγKO, mouse, iv, total radioactivity, Stomach uptake
Please go through the items and note down their tissue uptake at 1 h.
Numbers only, in %ID/g.

Record excerpt, results attached:
molecule	result.unit	tissue uptake at 1 h
O=C(O)CCC[C@H](NC(=O)N[C@@H](CCCCNC(=O)[C@H](Cc1ccc2ccccc2c1)NC(=O)[C@H]1CC[C@H](CNC(=O)CN2CCN(CC(=O)O)CCN(CC(=O)O)CCN(CC(=O)O)CC2)CC1)C(=O)O)C(=O)O [68Ga-HTK03169, metal not drawn]	%ID/g	0.09
O=C(O)CCC[C@H](NC(=O)N[C@@H](CCCCNC(=O)[C@H](Cc1c2ccccc2cc2ccccc12)NC(=O)Cc1cccc(CNC(=O)CN2CCN(CC(=O)O)CCN(CC(=O)O)CCN(CC(=O)O)CC2)c1)C(=O)O)C(=O)O [68Ga-HTK04037, metal not drawn]	%ID/g	0.12
O=C(O)CCC[C@H](NC(=O)N[C@@H](CCCCNC(=O)[C@H](Cc1c2ccccc2cc2ccccc12)NC(=O)c1ccc(NC(=O)CN2CCN(CC(=O)O)CCN(CC(=O)O)CCN(CC(=O)O)CC2)cc1)C(=O)O)C(=O)O [68Ga-HTK04041, metal not drawn]	%ID/g	0.07

Q: // tissue uptake at 1 h lookup, key: O=C(O)CCC[C@H](NC(=O)N[C@@H](CCCCNC(=O)[C@H](Cc1c2ccccc2cc2ccccc12)NC(=O)[C@H]1CC[C@H](CNC(=O)CN2CCN(CC(=O)O)CCN(CC(=O)O)CCN(CC(=O)O)CC2)CC1)C(=O)O)C(=O)O [68Ga-HTK03149, metal not drawn]
A: 0.09
